# System: UACC-62 melanoma
# test-method-notes: NCI-60 one-dose screen, 48 h (100 = growth as untreated, 0 = no growth, -100 = all killed)
# condition-context: 10 µM unless noted
Compounds without any hit were thinned out: in the full panel of roughly 83,000, 20% have a hit.
Could you please report measured growth for the items listed next?
One number for each entry, in %.

Worked cases, answers included:
{"molecule": "CC1=C(C(=O)OCc2ccccc2)C(c2ccc(N(C)C)cc2)n2c(nc3ccccc32)N1 (centres undefined)", "quantity-name": "growth", "readout-unit": "%", "assay-value": 42}
{"molecule": "COc1c(B(O)O)cc(F)cc1-c1nc2ccc3[nH]ncc3c2c2c1COCC2", "quantity-name": "growth", "readout-unit": "%", "assay-value": 68.2}
{"molecule": "COc1cc(/C=C/C(=O)c2cnn(-c3cc(=O)[nH]c4ccc(C)cc34)c2C)cc(OC)c1OC", "quantity-name": "growth", "readout-unit": "%", "assay-value": -71.9}
{"molecule": "O=C(NN1C(=O)/C(=C/C=C/c2ccc([N+](=O)[O-])o2)SC1=S)c1ccc(O)cc1", "quantity-name": "growth", "readout-unit": "%", "assay-value": -99.3}

Hey, can you go through the list below and give me growth for every item?
1. CCCCCCCCCCCCCCCCCC(=O)Nc1ccc(OC)cc1
2. O=C(Cc1c(-c2cccc([N+](=O)[O-])c2)n(-c2ncnc3c2c(-c2ccccc2)c(-c2ccccc2)n3Cc2ccccc2)[nH]c1=O)c1ccc(Cl)c(Cl)c1
3. Cc1ccc(C(C)C)cc1Oc1cccc(-c2c(-c3ccc(C(F)(F)F)cc3)ncn2C2CCNCC2)n1
4. COc1ccc(C2=Nc3c(N)nc(N)nc3NC(c3ccc(Oc4nc(Nc5ccc(F)cc5)nc(N(C)C)n4)c(OC)c3)C2)cc1 (centres undefined)
5. COc1ccc2c(c1)N=c1c-2cc2c(O)[nH]c(=S)n2c1=O

[A]
1. 97.5
2. 14
3. -94.1
4. 98.3
5. 34.4

====

# System: CCRF-CEM leukemia
# test-method-notes: NCI-60 one-dose screen, 48 h (100 = growth as untreated, 0 = no growth, -100 = all killed)
# condition-context: 10 µM unless noted
# Experimental: Growth inhibition of the CCRF-CEM human tumor cell line is measured as a screen for anti-cancer activity. Cells are grown in 96 well plates and exposed to the test compound for 48 hours. Compounds are tested at a single concentration, which is 10^-5 M for most compounds. The reported endpoint is percent growth (GI% or GIPRCNT), where numbers from 0 - 100% represent growth inhibition, and numbers from -100% - 0 represent cell death. For example, a value of 40 represents 60% growth inhibition. […]
About 83,000 compounds went through this panel and 20% of them were active in at least one assay; those are over-represented in the sample as a whole.
Returns: string. Value is true if measured growth is below 60%, and false if it is greater than or equal to it.

{"compound": "COc1ccc(Nc2ncnc3sc4c(c23)CCN(Cc2ccccc2)C4)cc1", "class-assignment": "false"}
{"compound": "CC1CCc2c(sc3nc(SCC(=O)c4cccc(Br)c4)n(-c4ccccc4)c(=O)c23)C1 (centres undefined)", "class-assignment": "true"}
{"compound": "Nc1nn2c(-c3cc4cc(Br)ccc4oc3=O)ccnc2c1N=Nc1ccc(Br)cc1", "class-assignment": "false"}

[Q] Would you kindly verify if growth of `COc1ccc(-c2cc(C(=O)N=Nc3c(O)[nH]c4ccc(Cl)cc34)c3ccccc3n2)cc1` is strictly less than 60%?
[A] false

[Q] Would you kindly verify if growth of `N#C/C(=C1/C(=O)Nc2ccccc21)c1nnc(NC(=O)c2ccc(-n3c(=O)[nH]c4ccccc4c3=O)cc2)s1` is strictly less than 60%?
[A] true
